# assay.info: soluble fraction after stress (log2 fold change); higher = more stays soluble; pooled small domains, quantitative proteomics
# experimental.setup: stress: 50 degC
The reader will find reported soluble fraction (log2) values listed item by item below.
Reply with just the number.

Consider the worked cases shown below.
Request: Item under review: "HMQDEAQLSMSNKYIFEGNSIVKDNFIEAEKKYRLGVSAKPNNAVGSYNLANAYYNSKLYDEAMLRLL" . Reported soluble fraction (log2)?
Result: 0.272

Request: Item under review: "HMQDFEEILKNAKIEDFKHTQTGEDLKVLKIEDKIEDFKGFNAYLVKNQIAYYSKFARGFVVKNIEKLQGV" . Reported soluble fraction (log2)?
Result: 0.0429

Request: Item under review: "HMYSDERLQTFMELLPFFVEELSNKHVTRYNVWQNYREAYPNGYGRSQFFFHLGQNLEAKKK" . Reported soluble fraction (log2)?
Result: -1.17

---
Request: Item under review: "HMSDMIGQNIRRLRTEKQMTQKALADKLFVTAQAVSRWENGEVEPSLSTVTEIARIFNVSADEILGI" . Reported soluble fraction (log2)?
Result: -0.0125

Request: Item under review: "HMNADLDIQNVNGNTPLWEAVMRYRGDGFFIEQLLKNGANPDIKNNYGVSPKSLARTIANYDVRRFFN" . Reported soluble fraction (log2)?
Result: -0.137

Request: Item under review: "HMQAVDPLELRAGDFVVHEQHGIGRYVEMVQRTIGGITREYLVIEYAPAKRGQPNDRVFVPTDTLEQVS" . Reported soluble fraction (log2)?
Result: -0.514

Request: Item under review: "HMHRGEIVDGVIASVNPRSILIDIGGKSDALVHPRELERMSDEDLRSLKPGQDVSVYVIETDSDGTMLVSL" . Reported soluble fraction (log2)?
Result: -0.0402

Request: Item under review: "HMSALAQDGDLVQLQGAGYKSHILRLKAGEVLQTHRGVIQHDAVIGQPWGARLQSHTGSPFYLFQPGLADL" . Reported soluble fraction (log2)?
Result: -0.522

Request: Item under review: "HMDLPDYYFRVRENGAVVFRVGTENRQRRIEMVEIATVNVKNGNIKPHGEVDLTKADRLAIGEWLAARQAQ" . Reported soluble fraction (log2)?
Result: -1.36

Request: Item under review: "HMDEAEELYQAVQALKPKYREVILLHYYQGLRVGEIAAILRAPQSTVSIRLRRARQMLNRMLG" . Reported soluble fraction (log2)?
Result: -0.548

----------
# assay.info: soluble fraction after stress (log2 fold change); higher = more stays soluble; pooled small domains, quantitative proteomics
# experimental.setup: stress: 50 degC
Label TRUE when soluble fraction (log2) >= -0.09; otherwise FALSE.

Request: Is it the case that "HMDIGKNIQTIRYANKLTQDQVIAKLNLMGISMSKSTYAKLETNRMNIKVSELVALAKIFHTDINAF" has soluble fraction (log2) reaching or exceeding -0.09?
Result: FALSE

Request: Is it the case that "HMSSDEEQLATLTRLLQKQEQIIQTLGPRNPMVSLQQYANTITKVIEMAGFKDTSQFINSQIP" has soluble fraction (log2) reaching or exceeding -0.09?
Result: TRUE

---
Request: Is it the case that "HMAMMTKQRLIQLIHIARNDLQMDEDTYRQMLQGLTGKASTKGMDTPQLNRVLESMKKKGFRIK" has soluble fraction (log2) reaching or exceeding -0.09?
Result: FALSE

Request: Is it the case that "HMSKPLEVFKLTSEPFGFSFNTALGRSYTVEATGDLGVWKAVELFQGSGGEIRFTAKPTSSGGAQFFRVFV" has soluble fraction (log2) reaching or exceeding -0.09?
Result: FALSE

Request: Is it the case that "HMSVETSDLLPLIEQVLSLNPDKVKEYQNGKKGLLGFFMGQIKQTAGVAIDVGTLKPLLEDALHKDL" has soluble fraction (log2) reaching or exceeding -0.09?
Result: FALSE

Request: Is it the case that "HMSATIMVLRASEDIPVGTEIKDNHLTTVEVGSYGLPEGAINDKDTVLGKVAQTNIIKGDYFFPQKLGG" has soluble fraction (log2) reaching or exceeding -0.09?
Result: TRUE

Request: Is it the case that "HMKAQTVPQFVGMTMTEAEEKASELGITLIEGAVVDSVEPKDTILTQDVDEGTEITGKMEIMVTISS" has soluble fraction (log2) reaching or exceeding -0.09?
Result: FALSE

Request: Is it the case that "HMKEVVKVTITPSEKLKSQYPDALVSIDGKFYDLGILNNPVEFYMDKDHKISIIWSTAELVESFRI" has soluble fraction (log2) reaching or exceeding -0.09?
Result: TRUE

Request: Is it the case that "HMNADAPWSPFSPGFTGPMNRPVIGLVTKADLANPQRISLVESWLVQAGAQKVFVTSALENTGVDEMFIFL" has soluble fraction (log2) reaching or exceeding -0.09?
Result: FALSE

Request: Is it the case that "HMHLRYTYIYDNENRVTSKEASKWDSTQEAWVPYFKMNVSYVNNEVELSYARWNSKSNAYDSSIKKTI" has soluble fraction (log2) reaching or exceeding -0.09?
Result: FALSE

Request: Is it the case that "HMRNQIRAVITPVPNQERYTVEMTIDDDAGNLLTLQMAAPDRQQAAEFAQRFQKHPEALYHAVLSVLL" has soluble fraction (log2) reaching or exceeding -0.09?
Result: TRUE

Request: Is it the case that "HMGFVATRSRKFLPFSEARAITRGLGFSNQKDYKEWIKGNGNELLLPFNPWRTYGDSGWKGWKDFLGTDKA" has soluble fraction (log2) reaching or exceeding -0.09?
Result: FALSE

Origin of values: the domain aggregation screens of Martell et al. (2025)
